Field: solubility. Provide a value for each of the compounds that follow.
assay_method_text: Comparison of solubility of compound Z and its salts
Assay type: physicochemical
reported_conditions: selected solvent of pH 4.5 (composition not named), aqueous buffer, thermodynamic from solid; pH = 4.5; read-out: Solubility

Looking up CC(=O)O.CCCOc1ccc(NC(=O)CN2CCN(C)CC2)cc1-c1nc(CC)c(CC)c(=O)[nH]1 [acetate of compound Z] , I found its solubility recorded as > 102 mg/mL

Looking up CCCOc1ccc(NC(=O)CN2CCN(C)CC2)cc1-c1nc(CC)c(CC)c(=O)[nH]1.O=C(O)/C=C\C(=O)O [maleate of compound Z] , I found its solubility recorded as 21.4 mg/mL

Looking up CCCOc1ccc(NC(=O)CN2CCN(C)CC2)cc1-c1nc(CC)c(CC)c(=O)[nH]1.O=C(O)C(O)C(O)C(=O)O [tartrate of compound Z] , I found its solubility recorded as > 155 mg/mL

Looking up CCCOc1ccc(NC(=O)CN2CCN(C)CC2)cc1-c1nc(CC)c(CC)c(=O)[nH]1.O=C(O)/C=C/C(=O)O [fumarate of compound Z] , I found its solubility recorded as > 20.2 mg/mL

Looking up CCCOc1ccc(NC(=O)CN2CCN(C)CC2)cc1-c1nc(CC)c(CC)c(=O)[nH]1.O=S(=O)(O)O [sulfate of compound Z] , I found its solubility recorded as > 25.6 mg/mL

Looking up CCCOc1ccc(NC(=O)CN2CCN(C)CC2)cc1-c1nc(CC)c(CC)c(=O)[nH]1.O=C(O)CCC(=O)O [succinate of compound Z] , I found its solubility recorded as > 22 mg/mL

Looking up CCCOc1ccc(NC(=O)CN2CCN(C)CC2)cc1-c1nc(CC)c(CC)c(=O)[nH]1 [compound Z] , I found its solubility recorded as 38.1 mg/mL

Looking up CCCOc1ccc(NC(=O)CN2CCN(C)CC2)cc1-c1nc(CC)c(CC)c(=O)[nH]1.Cl [hydrochlorate of compound Z] , I found its solubility recorded as > 23.6 mg/mL

Looking up CCCOc1ccc(NC(=O)CN2CCN(C)CC2)cc1-c1nc(CC)c(CC)c(=O)[nH]1.CS(=O)(=O)O [methanesulfonate of compound Z] , I found its solubility recorded as > 25.4 mg/mL
